target-entity: soluble DQ8 proteins (HLA-DQ8, DQA1*0301/DQB1*0302) (Homo sapiens, UniProt P01909+P01920, A209T/A45G/C70Q/D89A/DUP78-78/E183D/E77G/F237L/G63E/H199R/I129T/K197E/L178F/L74F/L98V/Q57E/Q76R/S185I/S97I/T217I/T49S/V73L/Y58L)
Where a SMILES comes first, the peptide text is derived from it.
pIC50 for assorted compounds
Just the number, please; pIC50 means minus log10 of the concentration in mol/L.

{"compound": "CC[C@H](C)[C@H](NC(=O)CNC(=O)[C@@H](NC(=O)[C@@H](N)CCCNC(=N)N)[C@@H](C)O)C(=O)N[C@@H](C)C(=O)N[C@@H](CCC(N)=O)C(=O)N[C@@H](C)C(=O)N[C@@H](CC(C)C)C(=O)N[C@@H](CO)C(=O)N[C@@H](CO)C(=O)N[C@@H](Cc1ccccc1)C(=O)N[C@@H](CC(=O)O)C(=O)N[C@@H](CC(C)C)C(=O)N[C@@H](Cc1c[nH]cn1)C(=O)O [ZnT8 330–343] (H-RTGIAQALSSFDLH-OH)", "meas-value": 5.60}

Now examine the next entry.
Consider the compound CC[C@H](C)[C@H](NC(=O)[C@H](Cc1c[nH]cn1)NC(=O)[C@H](CC(C)C)NC(=O)[C@H](CO)NC(=O)[C@H](Cc1c[nH]cn1)NC(=O)[C@@H](NC(=O)[C@H](CO)NC(=O)[C@@H](NC(=O)[C@@H](NC(=O)CNC(=O)[C@H](CC(=O)O)NC(=O)[C@@H](NC(=O)[C@H](C)N)C(C)C)C(C)C)[C@@H](C)CC)C(C)C)C(=O)N[C@@H](Cc1c[nH]c2ccccc12)C(=O)O [ZnT8 292–305] (H-AVDGVISVHSLHIW-OH) and give its measured pIC50. 4.74
